Target: Streptavidin (Streptomyces avidinii) (UniProt P22629)
Sequence (P22629 whole entry, looked up): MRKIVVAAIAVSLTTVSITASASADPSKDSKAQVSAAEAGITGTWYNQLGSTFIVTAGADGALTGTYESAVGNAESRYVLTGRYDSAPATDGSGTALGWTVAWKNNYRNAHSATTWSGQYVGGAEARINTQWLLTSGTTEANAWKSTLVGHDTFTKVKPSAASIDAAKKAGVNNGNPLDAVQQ
Assay: streptavidin binders on small-molecule microarray, primary screen, artefact control for SMM compound annotation, biophysical, 635/667 nm fluorescence (AID 1147);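 further: signal reflects streptavidin binding to arrayed compounds as a control protein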
Details: streptavidin binding, higher = more signal
readout.kind: composite z-score
Form: value (number only, do not type unit).

Which composite z-score value belongs to "CC(C)=CCN[C@H](CO)c1ccccc1" ?
0.0079

Which composite z-score value belongs to CC(=O)n1cc(C(O)C2C=CC3C(=O)N(c4ccccc4)C(=O)C3N2Nc2ccc([N+](=O)[O-])cc2)c2ccccc21 (configuration not stated) ?
0.808

Which composite z-score value belongs to "COCCOC(=O)N1C(=O)[C@@]2(c3cc(C#CCC(C(=O)OC)C(=O)OC)ccc31)[C@H](c1ccccc1OCCO)N1[C@H](c3ccccc3)[C@H](c3ccccc3)OC(=O)[C@H]1[C@@H]2C(=O)NC[C@H](O)c1ccccc1" ?
0.0919

Which composite z-score value belongs to "CCOC(=O)C[C@H]1[C@H](OC(=O)c2ccc(-c3ccccc3)cc2)[C@@H](NC(=O)Cc2ccc(OC)cc2)c2cc(OCCCO)ccc2N1C(=O)c1ccccc1" ?
-0.0322

Which composite z-score value belongs to "COC(=O)C[C@H]1O[C@]2(C(=O)N(C)c3ccccc32)[C@@H](C)[C@@H]1[Si](C)(C)F" ?
0.454

Which composite z-score value belongs to "CCCC[C@@H]1C[C@H]1[C@@H](NC(=O)c1ccccc1)c1ccc(C(=O)OC)cc1" ?
-0.279

Which composite z-score value belongs to COc1cc(NN2C(C(O)c3ccco3)C=CC3C(=O)N(c4ccccc4)C(=O)C32)cc(OC)c1OC (configuration not stated) ?
0.0123

These measurements were taken from PubChem BioAssay.
